System: HCC-2998 colon
Experiment: NCI tumour cell line growth inhibition, 48 h
measurement-kind: TGI

C#C[C@@]1(O)[C@@H](CO)O[C@@H](n2cc(Br)c3c(Cl)ccnc32)[C@@H]1O; > 100 µM
O=C(c1cscc1CCc1ccccc1)c1cscc1CCc1ccccc1; > 100 µM
COc1ccc2c(c1)C(=Nc1ccc(F)c(Cl)c1)c1c-2c(Nc2ccc(F)c(Cl)c2)nc2ccccc12; > 100 µM
CCOC(=O)c1ncn(CCc2ccc(Cl)cc2)c1C; > 100 µM
CCCCCCCCOC(=O)C12Oc3ccc(-c4ccc5c(c4O)C(O)=C4C(=O)CC(C)C(O)C4(C(=O)OCCCCCCCC)O5)c(O)c3C(O)=C1C(=O)CC(C)C2O (stereo unspecified); > 100 µM

For reference, reported TGI for CC(=O)NS(=O)(=O)c1ccc(NCc2cccc3c(=O)c4ccc(Cl)cc4oc23)cc1 stands at > 100 µM

For reference, reported TGI for CC12OC(CC(O)C1O)n1c3ccccc3c3c4c(c5c6ccccc6n2c5c31)C(=O)N(CCN1CCOCC1)C4=O (stereo unspecified) stands at 10.6 µM

For reference, reported TGI for COc1cc(-c2nn(-c3ccc(NC(=O)Nc4cc(C(F)(F)F)cc(C(F)(F)F)c4)cc3)cc2-c2ccncc2)ccc1Cl stands at 5.38 µM

For reference, reported TGI for Cc1ccc(C[As+](c2ccccc2)(c2ccccc2)c2ccccc2)cc1 stands at 19.6 µM

For reference, reported TGI for CN(C)[C@@H]1C(=O)C(C(=O)NCNc2nc3n[nH]nc3c(=O)[nH]2)=C(O)[C@@]2(O)C(=O)C3=C(O)c4c(O)cccc4[C@@](C)(O)[C@H]3C[C@@H]12 stands at > 100 µM

For reference, reported TGI for CCCC(=O)OCC1OC(n2cc(F)c(=O)[nH]c2=O)CC1O (stereo unspecified) stands at > 2.97 µM

====

Measured TGI by item
Tested on: A498 renal
Test: NCI tumour cell line growth inhibition, 48 h

Before answering, review these 5 worked examples.
CSC1=NN(C(C)=O)C(C(OC(C)=O)C(OC(C)=O)C(OC(C)=O)C(COC(C)=O)OC(C)=O)S1 (stereo not given); > 100 µM
COc1ccccc1-n1nnc2c(N)nc(N)nc21; > 100 µM
N#C/C(=C\c1cc(O)c(O)c(O)c1)C(N)=O; > 100 µM
CCCCCCCCOC(=O)C12Oc3ccc(-c4ccc5c(c4O)C(O)=C4C(=O)CC(C)C(O)C4(C(=O)OCCCCCCCC)O5)c(O)c3C(O)=C1C(=O)CC(C)C2O (stereo not given); > 100 µM
ICC1CCCO1 (stereo not given); > 100 µM

For reference, reported TGI for CNC(=O)C(C)Oc1ccc(OCC2CCCCC2)cc1 (stereo not given) stands at > 100 µM

For reference, reported TGI for O=Cc1ccc2ccocc1-2 stands at > 100 µM

====

Test system: A498 renal
Test: NCI tumour cell line growth inhibition, 48 h
Measured TGI by item

COC(=O)/C=C/CCC#Cc1ccccc1C#CCC/C=C/C(=O)OC; > 100 µM
Clc1cccc(-c2nc3cccc4c3n2Cc2ncccc2-4)c1; > 100 µM

Hey, A498 renal data for CN(C)[C@@H]1C(=O)C(C(=O)NCNc2nc3n[nH]nc3c(=O)[nH]2)=C(O)[C@@]2(O)C(=O)C3=C(O)c4c(O)cccc4[C@@](C)(O)[C@H]3C[C@@H]12 : TGI came out at > 100 µM

FYI, the data here is from PubChem BioAssay (NCI).
